Source of measurements: ChEMBL document CHEMBL3734664

# protocol-notes: Plasma clearance in rat at 1 mg/kg, iv
# Format: ADME, organism-based
reported-property: clearance (mL/min/kg)
Respond numerically; units are mL/min/kg and should not be typed.

Report clearance for `Cc1nc2cnc(Nc3ccnc(NCC(C)(C)S(C)(=O)=O)n3)cc2n1C(C)C` please.
158

Next, consider the following compound.
Need clearance, item CO[C@H]1CCN(c2nccc(Nc3cc4c(cn3)nc(CO)n4C(C)C)n2)C[C@H]1F (racemic)
107

* * *

# tgt: Epidermal growth factor receptor (Homo sapiens, UniProt P00533, L858R/T790M)
# Sequence (P00533 25-1210 T790M/L858R limits assumed): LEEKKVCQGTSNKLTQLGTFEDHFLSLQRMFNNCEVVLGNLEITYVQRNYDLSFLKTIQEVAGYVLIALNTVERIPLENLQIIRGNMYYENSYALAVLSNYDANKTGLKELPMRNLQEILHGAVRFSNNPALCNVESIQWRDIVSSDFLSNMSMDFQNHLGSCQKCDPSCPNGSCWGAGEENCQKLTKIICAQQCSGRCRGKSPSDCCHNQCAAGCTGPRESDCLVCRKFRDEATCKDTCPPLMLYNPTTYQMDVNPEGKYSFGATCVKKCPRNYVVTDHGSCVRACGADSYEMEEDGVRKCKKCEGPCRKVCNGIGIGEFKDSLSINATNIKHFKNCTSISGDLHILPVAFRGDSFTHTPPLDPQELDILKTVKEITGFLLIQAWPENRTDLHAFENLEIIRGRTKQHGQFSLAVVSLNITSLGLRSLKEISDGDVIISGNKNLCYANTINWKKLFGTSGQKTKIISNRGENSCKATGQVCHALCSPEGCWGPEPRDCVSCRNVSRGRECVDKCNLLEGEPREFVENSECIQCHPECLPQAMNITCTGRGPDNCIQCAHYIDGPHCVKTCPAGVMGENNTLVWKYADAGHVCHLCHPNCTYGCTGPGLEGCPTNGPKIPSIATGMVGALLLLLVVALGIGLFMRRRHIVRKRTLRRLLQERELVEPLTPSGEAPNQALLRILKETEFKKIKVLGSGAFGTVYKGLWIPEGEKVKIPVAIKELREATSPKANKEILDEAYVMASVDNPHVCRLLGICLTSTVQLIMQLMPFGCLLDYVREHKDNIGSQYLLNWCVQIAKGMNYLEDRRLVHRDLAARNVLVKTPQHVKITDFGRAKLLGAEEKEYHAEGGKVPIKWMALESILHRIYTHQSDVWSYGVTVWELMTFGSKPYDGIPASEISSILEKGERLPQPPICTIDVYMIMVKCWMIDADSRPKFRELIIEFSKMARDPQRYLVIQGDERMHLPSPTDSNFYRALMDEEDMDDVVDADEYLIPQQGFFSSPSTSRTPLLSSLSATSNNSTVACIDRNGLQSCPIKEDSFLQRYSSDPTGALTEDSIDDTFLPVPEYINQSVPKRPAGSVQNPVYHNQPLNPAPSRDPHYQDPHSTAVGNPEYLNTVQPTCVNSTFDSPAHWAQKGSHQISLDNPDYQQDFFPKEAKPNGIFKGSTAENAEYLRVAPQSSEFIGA
reported-property: Ki (nM)
Reply with just the number (in nM).

Returns the measured Ki for the input compound. Input: `C[C@@H](O)c1nc2cnc(Nc3ccnc(N4CC[C@H](O)[C@H](F)C4)n3)cc2n1[C@H](C)C(F)(F)F`
2.5

Record request: Ki value, item CO[C@H]1CCN(c2nccc(Nc3cc4c(cn3)nc(C)n4C(C)C)n2)C[C@H]1F (racemic)
2.7

Report Ki for CO[C@H]1CCN(c2nccc(Nc3cc4c(cn3)nc(C)n4C(C)C)n2)C[C@@H]1F (racemic) please.
44

Further cases:
# lookup: Ki of `Cc1nc2cnc(Nc3ccnc(OCC(C)(C)S(C)(=O)=O)n3)cc2n1C(C)C`
52

* * *

# Test system: NCI-H292
# protocol-notes: Antiproliferative activity against human NCI-H292 cells expressing wild type EGFR after 72 hrs by luminescence assay
# Type: functional, cell-based
# test-parameters: NCI-H292, 72 h
reported-property: pEC50
Formally, pEC50 is defined as -log10 of the concentration c, with c in mol/L.

So what's the measured pEC50 for this one? `CO[C@H]1CCN(c2nccc(Nc3cc4c(cn3)nc([C@@H](C)O)n4[C@H](C)C(F)(F)F)n2)C[C@H]1F`
5.11

* * *

# tgt: Epidermal growth factor receptor (Homo sapiens, UniProt P00533, 746-750DEL/T790M)
# Sequence (P00533 whole entry, looked up, stated change not applied): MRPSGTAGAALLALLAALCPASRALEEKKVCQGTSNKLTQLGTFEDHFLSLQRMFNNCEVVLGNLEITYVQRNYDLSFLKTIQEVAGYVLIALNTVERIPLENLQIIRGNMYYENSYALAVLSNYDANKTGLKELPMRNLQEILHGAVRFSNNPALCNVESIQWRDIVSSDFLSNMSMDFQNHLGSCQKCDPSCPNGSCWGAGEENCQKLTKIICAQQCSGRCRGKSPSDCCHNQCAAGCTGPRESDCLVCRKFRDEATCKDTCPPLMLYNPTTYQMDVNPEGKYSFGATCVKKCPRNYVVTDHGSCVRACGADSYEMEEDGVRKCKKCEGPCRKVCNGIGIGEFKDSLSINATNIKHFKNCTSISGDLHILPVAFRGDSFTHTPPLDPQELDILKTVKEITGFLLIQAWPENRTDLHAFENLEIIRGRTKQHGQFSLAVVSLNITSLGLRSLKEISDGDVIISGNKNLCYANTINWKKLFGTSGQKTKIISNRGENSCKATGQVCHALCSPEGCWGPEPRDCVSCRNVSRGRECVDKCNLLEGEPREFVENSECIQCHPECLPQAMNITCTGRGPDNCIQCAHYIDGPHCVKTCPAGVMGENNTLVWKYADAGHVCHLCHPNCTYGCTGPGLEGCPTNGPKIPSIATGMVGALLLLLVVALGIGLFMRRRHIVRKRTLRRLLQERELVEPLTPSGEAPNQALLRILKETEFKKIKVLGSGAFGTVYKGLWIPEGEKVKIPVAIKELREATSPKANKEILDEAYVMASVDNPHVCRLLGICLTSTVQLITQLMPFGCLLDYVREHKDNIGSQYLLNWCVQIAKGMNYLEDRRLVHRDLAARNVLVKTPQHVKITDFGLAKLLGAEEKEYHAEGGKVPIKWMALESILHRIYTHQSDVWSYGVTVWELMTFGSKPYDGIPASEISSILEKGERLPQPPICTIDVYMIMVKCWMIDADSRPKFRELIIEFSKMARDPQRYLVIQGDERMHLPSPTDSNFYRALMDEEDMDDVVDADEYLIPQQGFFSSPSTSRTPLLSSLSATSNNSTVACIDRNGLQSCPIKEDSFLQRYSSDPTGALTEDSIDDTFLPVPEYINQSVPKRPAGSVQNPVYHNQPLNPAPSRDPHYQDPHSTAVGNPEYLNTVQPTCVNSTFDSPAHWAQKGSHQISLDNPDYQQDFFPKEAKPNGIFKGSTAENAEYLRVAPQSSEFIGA
# protocol-notes: Inhibition of human EGFR T790M/del (746 to 750) deletion mutant using Fl-EEPLYWSFPAKKK-CONH2 as substrate preincubated for 30 mins followed by addition of substrate measured after 30 mins by Morrison plot analysis
# test-parameters: read-out: Ki(app)
The following compounds are shown together with reported pKi values.
In textbook form, pKi equals minus log to base ten of the concentration in mol/L.

Can you share its pKi? I mean this compound: `CO[C@H]1CCN(c2nccc(Nc3cc4c(cn3)nc([C@@H](C)O)n4[C@H](C)C(F)(F)F)n2)C[C@H]1F`
8.15

Now let's try a different one.
What does the data say about its pKi? Entry: `C[C@@H](O)c1nc2cnc(Nc3ccnc(N4CC[C@H](O)[C@H](F)C4)n3)cc2n1[C@H](C)C(F)(F)F`
8.22

* * *

Parameter pKi, tested on Epidermal growth factor receptor (Homo sapiens, UniProt P00533, L858R/T790M), listed per item.
Lab note — pKi values are minus log10 of concentrations in M.

Use these answered entries as a reference point.
# returns recorded pKi (system: Epidermal growth factor receptor (Homo sapiens, UniProt P00533, L858R/T790M)) for Cc1nc2cnc(Nc3ccnc(N4CCC(C)(C(N)=O)C4)n3)cc2n1C(C)C (stereo not given)
6.91

Which pKi is reported with Epidermal growth factor receptor (Homo sapiens, UniProt P00533, L858R/T790M) for this entry: `COC1CCN(c2nccc(Nc3cc4c(cn3)nc(C)n4C(C)C)n2)CC1` ?
7.72

Please state recorded pKi (tested on Epidermal growth factor receptor (Homo sapiens, UniProt P00533, L858R/T790M)) of `COC1CCN(c2nccc(Nc3cc4c(cn3)ncn4C3CCOCC3)n2)CC1`
7.12

New cases:
So what pKi did `COC1(CO)CCN(c2nccc(Nc3cc4c(cn3)nc(C)n4C(C)C)n2)CC1` get with Epidermal growth factor receptor (Homo sapiens, UniProt P00533, L858R/T790M)?
7.62

Enter reported pKi observed with Epidermal growth factor receptor (Homo sapiens, UniProt P00533, L858R/T790M) for COC1CCN(c2nccc(Nc3cc4c(cn3)ncn4C(C)C(F)(F)F)n2)CC1 (racemic)
7.57

* * *

Measured CL free, listed per entry.
# Tested on: Rattus norvegicus
# protocol-notes: Unbound plasma clearance in rat at 5 mg/kg, iv
# Format: ADME, organism-based
# test-parameters: in vivo
The response must be a number in mL/min/kg with no trailing unit.

Value lookup for CL free; key = `C[C@@H](O)c1nc2cnc(Nc3ccnc(N4CC[C@H](O)[C@H](F)C4)n3)cc2n1[C@H](C)C(F)(F)F`
348

I would be grateful if you could share the reported CL free for `COC1CCN(c2nccc(Nc3cc4c(cn3)nc(C)n4C(C)C)n2)CC1` .
620

Please report the recorded CL free for Cc1nc2cnc(Nc3ccnc(N4CC[C@H](O)[C@H](F)C4)n3)cc2n1C(C)C (racemic) .
545

Now turn to the next molecule.
What value of CL free has been recorded for this entry: `CO[C@H]1CCN(c2nccc(Nc3cc4c(cn3)nc([C@@H](C)O)n4[C@H](C)C(F)(F)F)n2)C[C@H]1F`
334

* * *

# protocol-notes: Unbound fraction in mouse plasma
# Type: ADME, cell-free
reported-property: fraction unbound
Give the value as a plain number.

What fraction unbound value was documented for this compound, `C[C@@H](O)c1nc2cnc(Nc3ccnc(N4CC[C@H](O)[C@H](F)C4)n3)cc2n1[C@H](C)C(F)(F)F` ?
0.207

* * *

pIC50 for assorted compounds
# tgt: Epidermal growth factor receptor (Homo sapiens, UniProt P00533, 746-750DEL/T790M)
# protocol-notes: Inhibition of EGFR T790M/del (746 to 750) deletion mutant phosphorylation in erlotinib-resistant human PC9 cells preincubated for 1 hr followed by stimulation with EGF for 8 mins by electrochemiluminescent immunoassay
Scale: pIC50 equals -log10([C]), with [C] in mol/L.

For the compound `CO[C@H]1CCN(c2nccc(Nc3cc4c(cn3)nc([C@@H](C)O)n4[C@H](C)C(F)(F)F)n2)C[C@H]1F` , what pIC50 is on record?
7.57

What value of measured pIC50 is listed for `C[C@@H](O)c1nc2cnc(Nc3ccnc(N4CC[C@H](O)[C@H](F)C4)n3)cc2n1[C@H](C)C(F)(F)F` ?
7.09

* * *

# protocol-notes: Apparent permeability from apical to basolateral side in MDCK cells
# Assay type: ADME, cell-based, Canis lupus familiaris
# test-parameters: dog
reported-property: Papp A→B (×10⁻⁶ cm/s)
The figure you give is taken to be in ×10⁻⁶ cm/s; do not add the unit.

GET /values?readout=Papp A→B&item= `COC1CCN(c2nccc(Nc3cc4c(cn3)nc(C)n4C(C)C)n2)CC1`
29

* * *

# protocol-notes: Kinetic solubility of compound in PBS at pH 7.4 at 100 uM after 24 hrs
# Type: physicochemical
# test-parameters: read-out: Kinetic_solubility
reported-property: solubility kinetic at 24 h, 100 µM
Reply with a number, then the unit it belongs to.

Which measured solubility kinetic at 24 h, 100 µM value corresponds to `COC1CCN(c2nccc(Nc3cc4c(cn3)nc(C)n4C(C)C)n2)CC1` ?
87 µM

* * *

# tgt: Epidermal growth factor receptor (Homo sapiens, UniProt P00533, L858R/T790M)
We begin with a simple list: items and their reported Ki.
// units = nM; emit number, no label

What measured Ki is associated with CCC(C)n1cnc2cnc(Nc3ccnc(N4CCC(OC)CC4)n3)cc21 (racemic; form 1) on Epidermal growth factor receptor (Homo sapiens, UniProt P00533, L858R/T790M)?
14

// lookup Ki | system=Epidermal growth factor receptor (Homo sapiens, UniProt P00533, L858R/T790M) | key= Cc1nc2cnc(Nc3ccnc(N4CC[C@H](O)[C@H](F)C4)n3)cc2n1C(C)C (racemic)
13

Look up Ki with Epidermal growth factor receptor (Homo sapiens, UniProt P00533, L858R/T790M) for this compound: `Cc1nc2cnc(Nc3ccnc(N4CCC(S(C)(=O)=O)CC4)n3)cc2n1C(C)C`
64

Next:
Param readout = Ki; param system = Epidermal growth factor receptor (Homo sapiens, UniProt P00533, L858R/T790M); param query = `COC1CCN(c2nccc(Nc3cc4c(cn3)ncn4C3CC3)n2)CC1` ; response: value
87

# returns recorded Ki (system: Epidermal growth factor receptor (Homo sapiens, UniProt P00533, L858R/T790M)) for CCC(C)n1cnc2cnc(Nc3ccnc(N4CCC(OC)CC4)n3)cc21 (racemic; form 2)
17

Request body: readout Ki, system Epidermal growth factor receptor (Homo sapiens, UniProt P00533, L858R/T790M), query CO[C@H]1CCN(c2nccc(Nc3cc4c(cn3)nc(CO)n4C(C)C)n2)C[C@H]1F (racemic) . Return the value.
4.3

* * *

# Tested on: Rattus norvegicus
# protocol-notes: Unbound plasma clearance in rat at 0.5 mg/kg, iv
# Type: ADME, organism-based
# test-parameters: in vivo
reported-property: CL free (mL/min/kg)
Note: unit mL/min/kg is implicit; provide only the numeric part.

Find CL free (Rattus norvegicus) for the entry `Cc1nc2cnc(Nc3ccnc(/C=C/C(C)(C)O)n3)cc2n1C(C)C`
200

What measured CL free is associated with `Cc1nc2cnc(Nc3ccnc(NCC(C)(C)C(N)=O)n3)cc2n1C(C)C` on Rattus norvegicus?
909

Please tell me: CL free of `Cc1nc2cnc(Nc3ccnc(N4CCC(S(C)(=O)=O)CC4)n3)cc2n1C(C)C` , system Rattus norvegicus?
934

Give the reported CL free for `Cc1nc2cnc(Nc3ccnc(OCC(C)(C)S(C)(=O)=O)n3)cc2n1C(C)C` (system: Rattus norvegicus).
156

Read the next record carefully.
# value lookup — system Rattus norvegicus, readout CL free, item CC(C)n1c(CO)nc2cnc(Nc3ccnc(N4CC[C@H](O)[C@H](F)C4)n3)cc21 (racemic)
382
